TARGET_SYSTEM: Human type-X sPLA2 (Homo sapiens, UniProt O15496)
Sequence (O15496 43-165): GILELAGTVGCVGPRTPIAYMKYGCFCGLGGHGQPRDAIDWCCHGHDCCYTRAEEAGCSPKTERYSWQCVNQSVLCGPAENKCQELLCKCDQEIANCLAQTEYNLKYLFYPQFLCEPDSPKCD
pIC50: −log10 of the molar value.

SMILES_STR: NC(=O)C1=CCCc2c1c1c(OCC(=O)O)nccn1c2Cc1ccccc1
pIC50: 8.30
